I'd appreciate it if you could supply Kd values for the items below.
biological target: T1, human transferrin receptor (hTfR) fused to EGFP, on CHO cells (human, UniProt P02786 1-760); assay: apparent Kd, flow cytometry, CHO cells
T1 construct: whole, on cells; also called human TfR; CHO-hTfR-EGFP; not shown: EGFP from pEGFP-C1 vector, fused to the N-terminal (intracellular) end of hTfR
T1 sequence (P02786 whole entry, the tested form may be a part): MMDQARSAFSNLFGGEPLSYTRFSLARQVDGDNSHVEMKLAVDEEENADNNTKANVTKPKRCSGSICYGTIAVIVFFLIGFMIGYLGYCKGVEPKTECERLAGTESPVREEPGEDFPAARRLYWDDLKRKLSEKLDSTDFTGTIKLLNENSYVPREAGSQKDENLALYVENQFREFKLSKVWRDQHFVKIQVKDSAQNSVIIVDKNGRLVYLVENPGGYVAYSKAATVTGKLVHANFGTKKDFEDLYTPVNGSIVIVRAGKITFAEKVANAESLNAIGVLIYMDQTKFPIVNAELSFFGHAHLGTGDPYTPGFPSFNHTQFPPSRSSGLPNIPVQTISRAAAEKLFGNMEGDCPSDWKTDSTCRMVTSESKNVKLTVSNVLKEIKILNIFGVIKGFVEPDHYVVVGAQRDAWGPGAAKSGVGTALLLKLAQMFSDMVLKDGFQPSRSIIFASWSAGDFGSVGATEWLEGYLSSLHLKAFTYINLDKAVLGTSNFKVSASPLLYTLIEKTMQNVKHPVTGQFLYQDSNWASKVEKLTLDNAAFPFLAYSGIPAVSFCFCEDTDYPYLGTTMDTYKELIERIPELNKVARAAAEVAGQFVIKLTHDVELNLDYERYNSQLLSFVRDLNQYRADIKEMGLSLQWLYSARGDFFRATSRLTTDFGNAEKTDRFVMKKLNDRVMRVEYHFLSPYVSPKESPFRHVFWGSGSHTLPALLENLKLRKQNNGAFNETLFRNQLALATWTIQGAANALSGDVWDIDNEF

Give the measured Kd for VHH A1 (C5^V1) (VHH) VHH: EVQLVESGGGVVQPGGSLKLSCVASGADFSINFIRWYRQAPGKQREFVAGFTATGNTNYADSMKGRFTISRDNTKNAVYLQIDSLKPEDTAVYYCYMLDKWGQGTQVTVSS
3.2 nM

Determine its reported Kd: C5^V25 (VHH) VHH: EVQLVESGGGVVQPGGSLKLSCVASGTDFSINFIRWYRQAPGKQREFVAGFTATGNTNYADSMKGRFTISRDNTKNAVYLQIDSLKPEDTAVYYCYLLDKWGQGTQVTVSS
4.5 nM

Given the binder B8^V18 (VHH) VHH: EVQLVESGGGVVQPGGSLRLSCAASGEIHSINFMRWYRQAPGKQREWVAGFTRDGSTNYPDSAKGRFTISRDNAKNTVYLQIDSLKPEDTAVYYCYMLDTWGQGTQVTVSS , write its reported Kd.
3.8 nM

Annotate the binder VHH A10 (C5^V10) (VHH) VHH: EVQLVESGGGVVQPGGSLKLSCVASGTDFSLNFIRWYRQAPGKQREFVAGFTATGNTNYADSMKGRFTISRDNTKNAVYLQIDSLKPEDTAVYYCYMLDKWGQGTQVTVSS with its measured Kd.
3.4 nM

# return recorded Kd for entry C5^V29 (VHH) VHH: EVQLVESGGGVVQPGGSLKLSCVASGADFSINFIRWYRQAPGKQREFVAGFTATGHTNYADSMKGRFTISRDNTKNAVYLQIDSLKPEDTAVYYCYMLDKWGQGTQVTVSS
2.9 nM

Tell us which Kd value is on record for B8^V38 (VHH) VHH: EVQLVESGGGVVQPGGSLRLSCAASGEIRSINFMRWYRQAPGKQREWVAGFTRTGSTNYPDSAKGRFTISRDNAKNTVYLQIDSLKPEDTAVYYCYMLDTWGQGTQVTVSS
23 nM

Specify reported Kd for the binder shown: B8^V20 (VHH) VHH: EVQLVESGGGVVQPGGSLRLSCAASGEIFSINFMRWYRQAPGKQREWVAGFTRDGSHNYPDSAKGRFTISRDNAKNTVYLQIDSLKPEDTAVYYCYMLDTWGQGTQVTVSS
4.5 nM

Specify reported Kd for the binder shown: B8^V39 (VHH) VHH: EVQLVESGGGVVQPGGSLRLSCAASGEIFKINFMRWYRQAPGKQREWVAGFTRDGSTNYPDSAKGRFTISRDNAKNTVYLQIDSLKPEDTAVYYCYMLDTWGQGTQVTVSS
16 nM

// Input: VHH A14 (C5^V14) (VHH) VHH: EVQLVESGGGVVQPGGSLKLSCVASGTDFSINFIRWYRQAPGKQREFVAGFTATGNSNYADSMKGRFTISRDNTKNAVYLQIDSLKPEDTAVYYCYMLDKWGQGTQVTVSS . Output its Kd only.
3.3 nM

Recall and state the measured Kd for C5^h9 (VHH) VHH: EVQLVESGGGVVQPGGSLRLSCAASGTDFSINFIRWYRQAPGKGLEFVAGFTATGNTNYADSVKGRFTISRDNAKNTLYLQMNSLRPEDTAVYYCYMLDKWGQGTQVTVSS .
6.1 nM

Report measured Kd; entry is C5^V27 (VHH) VHH: EVQLVESGGGVVQPGGSLKLSCVASGADFSINYIRWYRQAPGKQREFVAGFTATGNTNYADSMKGRFTISRDNTKNAVYLQIDSLKPEDTAVYYCYMLDKWGQGTQVTVSS
3.1 nM

Give a short answer stating reported Kd for E2 (VHH) VHH: QVQLVQSGGGLVQAGGSLRLSCAASGSIFSDITLAWHRQIPGKEREWVAGISRSGSPSYRDSVKGRFTISRDNAKNTVFLQMNSLEPEDTGVYYCYSRGYWGQGTQVTVSS .
2.5 nM

Using known records, supply Kd for B8^V40 (VHH) VHH: EVQLVESGGGVVQPGGSLRLSCAASGEIKSINFMRWYRQAPGKQREWVSGFTRDGSTNYPDSAKGRFTISRDNAKNTVYLQIDSLKPEDTAVYYCYMLDTWGQGTQVTVSS
42 nM

Input B6^V1 (VHH) VHH: EVQLVESGGGLVQPGGSLRLSCTASGGPIEQYPMGWFRRAPGKERNLVASISRSGDGTYYAISSVKGRFTISRDNAENTVFLQMNSLKPDDTAVYYCGAGINPTKIWGQGTQVTVSS , output reported Kd.
2.3 nM

Name the recorded Kd of the item C5^V26 (VHH) VHH: EVQLVESGGGVVQPGGSLKLSCVASGTDFSINFIRWYRQAPGKQREFVAGFTATGNTNYADSMKGRFTISRDNTKNAVYLQIDSLKPEDTAVYYCYVLDKWGQGTQVTVSS in your answer.
7.9 nM

Specify reported Kd for the binder shown: C5^h23 (VHH) VHH: EVQLVESGGGVVQPGGSLRLSCAASGTDFSINFIRWVRQAPGKQREFVAGFTATGNTNYADSVKGRFTISRDNAKNTLYLQMNSLRPEDTAVYYCYMLDKWGQGTQVTVSS
594 nM

Just for reference, patent US20230414780A1 is where these values come from.
